Experiment: Cytotoxicity against human MRC5 cells assessed as reduction in cell viability incubated for 72 hrs by MTS assay
Assay type: toxicity, cell-based
Would you kindly list IC50 at 72 h for each of these compounds?

Please review the entries below; each comes with its answer.
{"columns": ["querySmiles", "testReadout", "recordedMeasurement"],
 "data": [
  ["Cc1oc(=O)oc1COC(=O)[C@]12CC[C@@H](C(C)C)[C@@H]1[C@H]1CC[C@@H]3[C@@]4(C)Cc5nccnc5C(C)(C)[C@@H]4CC[C@@]3(C)[C@]1(C)CC2", "IC50 at 72 h", "> 50 µM"],
  ["C[C@H]1[C@H](C)CC[C@]2(C(=O)O)CC[C@]3(C)C(=CC[C@@H]4[C@@]5(C)Cc6cccnc6C(C)(C)[C@@H]5CC[C@]43C)[C@H]12", "IC50 at 72 h", "> 50 µM"],
  ["C=C(C)[C@@H]1CC[C@]2(C(=O)OCc3oc(=O)oc3C)CC[C@]3(C)[C@H](CC[C@@H]4[C@@]5(C)Cc6cccnc6C(C)(C)[C@@H]5CC[C@]43C)[C@@H]12", "IC50 at 72 h", "> 50 µM"],
  ["CC1(C)CC[C@]23CC[C@]4(C)[C@H](CC[C@@H]5[C@@]6(C)Cc7nccnc7C(C)(C)[C@@H]6CC[C@]54C)[C@H]2[C@H]1OC3", "IC50 at 72 h", "> 50 µM"],
  ["CC1=CC[C@]2(C(=O)O)CC[C@]3(C)[C@H](CC[C@@H]4[C@@]5(C)Cc6nccnc6C(C)(C)[C@@H]5CC[C@]43C)[C@H]2[C@@H]1C", "IC50 at 72 h", "> 50 µM"],
  ["C=C(C)[C@@H]1CC[C@]2(C(=O)OCc3oc(=O)oc3C)CC[C@]3(C)[C@H](CC[C@@H]4[C@@]5(C)CC[C@H](O)C(C)(C)[C@@H]5CC[C@]43C)[C@@H]12", "IC50 at 72 h", "41 µM"]
]}

Take each entry in turn and give its IC50 at 72 h.
1. C=C(C=O)[C@@H]1CC[C@]2(C(=O)OCc3cn([C@H]4O[C@H](COC(C)=O)[C@@H](OC(C)=O)[C@H](OC(C)=O)[C@H]4OC(C)=O)nn3)CC[C@]3(C)[C@H](CC[C@@H]4[C@@]5(C)CC[C@H](O)C(C)(C)[C@@H]5CC[C@]43C)[C@@H]12
2. CC1(C)CC[C@]2(C(=O)O)CC[C@]3(C)C(=CC[C@@H]4[C@@]5(C)Cc6nccnc6C(C)(C)[C@@H]5CC[C@]43C)[C@@H]2C1

["1.7 µM", "> 50 µM"]
